- TESTED_SYSTEM: T1, human CD3 on CD3+ Jurkat cells (human, UniProt P07766 23-207)
- T1 construct: whole, on cells; The whole CD3 complex stands on the cells; also called Human CD3 Jurkat; human CD3+ Jurkat cells
- T1 sequence (P07766 23-207): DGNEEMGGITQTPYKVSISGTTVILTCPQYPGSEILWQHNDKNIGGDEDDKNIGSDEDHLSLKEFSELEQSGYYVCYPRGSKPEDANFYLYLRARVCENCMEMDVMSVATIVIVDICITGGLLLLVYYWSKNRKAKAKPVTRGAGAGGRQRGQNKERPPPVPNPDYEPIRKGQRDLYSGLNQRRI
- MEASUREMENT_NOTES: flow cytometry, yeast-produced IgG 100 nM on CD3+ Jurkat cells, pH 7.4
Threshold rule: NCB greater than or equal to 60 is YES; below that, NO.

Example cases with answers are listed next.
INSERT INTO assay_data (binder, class) VALUES
  ('ADI-79845 (Antibody No. 11), human IgG1 (antibody, V domains shown, Tested as yeast-produced aglycosylated human IgG1) VH: QVQLVQSGAEVKKPGASVKVSCKASGFNIKDYYMHWVRQAPGQRLEWMGWIDLENANTIYDAKFQGRVTITRDTSASTAYMELSSLRSEDTAVYYCARDAYGRYFYDVWGQGTLVTVSS VL: DIVMTQSPDSLAVSLGERATINCKSSQSLLNARTGKNYLAWYQQKPGQPPKLLIYWASTRESGVPDRFSGSGSGTDFTLTISSLQAEDVAVYYCKQSYSHRTFGGGTKVEIK', 'YES'),
  ('ADI-74967 (Antibody No. 5), human IgG1 (antibody, V domains shown, Tested as human IgG1 (yeast-produced aglycosylated, or CHO-produced)) VH: QVQLVQSGAEVKKPGASVKVSCKASGFNIKDYYMHWVRQAPGQRLEWMGWIDLENANTIYDAKFQGRVTITRDTSASTAYMELSSLRSEDTAVYYCARDHYHRYFYDVWGQGTLVTVSS VL: GIVMTQSPDSLAVSLGERATINCKSSQSLLNARTGKNYLAWYQQKPGQPPKLLIYWASTRESGVPDRFSGSGSGTDFTLTISSLQAEDVAVYYCKQSHSHRTFGGGTKVEIK', 'NO'),
  ('ADI-79846 (Antibody No. 12), human IgG1 (antibody, V domains shown, Tested as yeast-produced aglycosylated human IgG1) VH: QVQLVQSGAEVKKPGASVKVSCKASGFNIKDYYMHWVRQAPGQRLEWMGWIDLENANTIYDAKFQGRVTITRDTSASTAYMGLSSLRSEDTAVYYCARDHYGRYFYDVWGQGTLVTVSS VL: DIVMTQSPDSLAVSLGERATINCKSSQSLLNARTGHNYLAWYQQKPGQPPKLLIYWASTRESGVPDRFSGSGSGTDFTLTISSLQAEDVAVYYCKQSHSHRTFGGGTKVEIK', 'NO'),
  ('ADI-74968 (Antibody No. 6), human IgG1 (antibody, V domains shown, Tested as human IgG1 (yeast-produced aglycosylated, or CHO-produced)) VH: QVQLVQSGAEVKKPGASVKVSCKASGFNIKDYYMHWVRQAPGQRLEWMGWIDLENANTIYDAKFQGRVTITRDTSASTAYMELSSLRSEDTAVYYCARDAYHRYFYDVWGQGTLVTVSS VL: DIVMTQSPDSLAVSLGERATINCKSSQSLLNARTGHNYLAWYQQKPGQPPKLLIYWASTRESGVPDRFSGSGSGTDFTLTISSLQAEDVAVYYCKQSYSHRTFGGGTKVEIK', 'YES');

Ask: hey, is NCB for this one >= 60? ADI-74965 (Antibody No. 3), human IgG1 (antibody, V domains shown, Tested as human IgG1 (yeast-produced aglycosylated, or CHO-produced)) VH: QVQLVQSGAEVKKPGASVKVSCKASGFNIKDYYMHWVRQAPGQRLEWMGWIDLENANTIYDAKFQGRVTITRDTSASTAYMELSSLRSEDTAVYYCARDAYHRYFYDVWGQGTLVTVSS VL: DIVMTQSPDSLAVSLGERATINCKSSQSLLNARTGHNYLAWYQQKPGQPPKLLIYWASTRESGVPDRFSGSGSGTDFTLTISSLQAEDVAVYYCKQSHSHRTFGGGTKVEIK
Result: NO
